assay system: anti-cortisol (17) Fab fragment
assay notes: Initial ligand screening by native MS
Assay type: binding, murine
condition parameters: Fab 0.1 μM, ligand 100 nM to 10 μM
quantity kind: approximate KD range from initial ligand screening

compound="C[C@]12C=CC(=O)C=C1CC[C@@H]1[C@@H]2[C@@H](O)C[C@@]2(C)[C@H]1CC[C@]2(O)C(=O)CO [prednisolone]" experimental_result="nanomolar range"
compound="C[C@]12C[C@H](O)[C@H]3[C@@H](CCC4=CC(=O)CC[C@@]43C)[C@@H]1CC[C@@H]2C(=O)CO [corticosterone]" experimental_result="nanomolar range"
compound="C[C@]12CCC(=O)C=C1CC[C@@H]1[C@@H]2[C@@H](O)C[C@@]2(C)[C@H]1CC[C@]2(O)C(=O)CO [cortisol]" experimental_result="nanomolar range"
